System: A549 NSCLC
assayProtocol: NCI tumour cell line growth inhibition, 48 h
Listed compounds paired with reported TGI

Asked: # query: TGI | item Clc1cc2nn(C3CCCCO3)nc2cc1Cl (stereo unspecified) | system: A549 NSCLC
Given back: > 100 µM

Asked: So what TGI did CC1(c2sccc2Cl)CC(c2sccc2Cl)=C(C#N)C(=C(C#N)C#N)N1 (stereo unspecified) get with A549 NSCLC?
Given back: 75.6 µM

Asked: Please state recorded TGI (tested on A549 NSCLC) of COc1cc2c(cc1OC)C1C(=O)c3c(O)cc4c(c3OC1CO2)C=CC(C)(C)O4 (stereo unspecified)
Given back: > 100 µM

Asked: I'm curious: which TGI was measured for O=C1C(=O)N(c2ccc(Cl)cc2)C(=O)C(=O)C1c1nc2ccccc2o1 tested on A549 NSCLC?
Given back: > 100 µM

Asked: Request: TGI, test system A549 NSCLC, entry COC(=O)/C=C\C(C#N)(C#N)N=Cc1cccc(OC)c1
Given back: 35.1 µM

Asked: Item O=[N+]([O-])C(/C=C(\Cl)[N+](=O)[O-])=C1Nc2ccccc2N1 with A549 NSCLC - TGI?
Given back: > 100 µM

Asked: Can you look up TGI on A549 NSCLC for CC1(C)[C@@H]2CC[C@]1(C)[C@H](OC(=O)/C=C/c1ccccc1)C2 ?
Given back: > 100 µM

Asked: Request: TGI, test system A549 NSCLC, entry CCOC(=O)CC(c1ccccc1)C(C)(C(=O)OCC)C(=O)OCC (stereo unspecified)
Given back: > 100 µM

Asked: Request - read-out TGI | tested on A549 NSCLC | compound Cc1c(O)c(N=Nc2nc3ccccc3s2)c2ccccc2c1O
Given back: > 50 µM

Asked: // fetch A549 NSCLC TGI for CC(=O)Nc1cc2cc(N)ccc2oc1=O
Given back: > 100 µM

Asked: Recall the recorded TGI for CC(=O)O[C@H]([C@H](OC(C)=O)[C@H](C)OC(C)=O)[C@@H](/C=C/[C@@H]1CC=CC(=O)O1)OC(C)=O with A549 NSCLC and state it.
Given back: > 100 µM

Asked: Give the reported TGI for CC(=O)OC1CCC2(C)C(CCC3C2CC(=O)C2(C)C3CC(N3CC3)C2C(C)=O)C1 (stereo unspecified) (system: A549 NSCLC).
Given back: > 100 µM

The origin of these recorded values is PubChem BioAssay (NCI).
